# subject_of_test: T1, CD137 antigen (Octet antigen binding assay) (UniProt Q07011 24-186, limits assumed)
# T1 construct: also called 4-1BB; TNFRSF9
# protocol_description: BLI, Octet Red 96, antibody on anti-human Fc (AHC) biosensors, 1:1 model
measure: kon (M⁻¹ s⁻¹)

>>> numeric_readout("LYV375 (22F2-IgG4) (antibody, V domains shown, Chimeric antibody, human IgG4 S228P / human kappa; also called 22F2 in human IgG4SP / human Kappa) VH: EVKLVESGAELVRPGSSVKISCKASGYAFSLYWMNWVKQRPGQGLEWIGQIYPGDGYTNYNGKFKGKATLTADKSSSTAYMQLSSLTSEDSAVYFCARGQLGLDGYWGQGTTLTVSS VL: QIVLTQSPAIMSASPGEKVTMTCSASSSVSYIYWYQQKPGSSPRLLIYDTSNLASGVPVRFSGSGSGTSYSLTISRMEAEDAATYYCQQWNIYPYTFGGGTKLEIKR")
280000
>>> numeric_readout("LYV402 (26B3-IgG4) (antibody, V domains shown, Chimeric antibody, human IgG4 S228P / human kappa; also called 26B3b in hG4SP / human kappa) VH: EVKLLESGGGLVQPGGSLKLSCAASGFDFSRYWMSWVRQAPGKGLEWIGEINPDSNPINYTPSLKDKFIISRDNAKNTLYLQMSKVRSEDTALYYCARDGSSSRYFDVWGAGTTVTVSS VL: DIVMTQSPATLSVTPGDRVSLSCRASQSISDYLHWYQQKSHESPRLLIKYVSQSISGIPSRFSGSGSGSDFTLSINSVEPEDVGVYYCQNGHSFPPTFGGGTKLEIKR")
160000
